B1: 2M8U (parent)
chain: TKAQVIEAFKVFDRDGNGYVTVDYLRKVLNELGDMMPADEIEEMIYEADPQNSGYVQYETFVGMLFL

Variants of: B1
Assay: folding stability dG (cDNA display proteolysis); higher = more stable
Conditions: PBS, room temperature
ASSAY_ENDPOINT: folding stability dG (kcal/mol)

>>> recorded_number("L25Q")
2.02
>>> recorded_number("L29A")
2.57
>>> recorded_number("V11Q")
3.65
>>> recorded_number("V62Y")
2.11
>>> recorded_number("V62C")
2.48
>>> recorded_number("A38Y")
3.5
>>> recorded_number("A3G")
2.93
>>> recorded_number("L25D")
1.27
>>> recorded_number("M44N")
2.88
>>> recorded_number("S53V")
3.15
>>> recorded_number("E42M")
3.3
>>> recorded_number("V56F")
2.62
>>> recorded_number("R26Y")
3.53
>>> recorded_number("L32T")
2.55
>>> recorded_number("V56S")
2.17
>>> recorded_number("E47P")
2.33
>>> recorded_number("Y58D")
1.3
>>> recorded_number("N17L")
3.39
>>> recorded_number("E59T")
3.12
>>> recorded_number("I41T")
2.72
>>> recorded_number("V5M")
3.85
>>> recorded_number("N30C")
3.37
>>> recorded_number("D49N")
2.75
>>> recorded_number("G16P")
2.11
>>> recorded_number("L32A")
2.77
>>> recorded_number("Y46D")
3.29
>>> recorded_number("G33H")
3.25
>>> recorded_number("Q51G")
3.43
>>> recorded_number("Q4M")
3.31
>>> recorded_number("I41S")
2.59
>>> recorded_number("Y19D")
2.21
>>> recorded_number("D49Y")
2.67
>>> recorded_number("A48N")
3.44
>>> recorded_number("A38R")
3.62
>>> recorded_number("F9N")
2.22
>>> recorded_number("I45Y")
2.5
>>> recorded_number("G33D")
3.25
>>> recorded_number("M36F")
4.23
>>> recorded_number("D15H")
2.69
>>> recorded_number("G16W")
2.29
>>> recorded_number("Y19M")
3.3
>>> recorded_number("L25I")
3.14
>>> recorded_number("T21K")
3.47
>>> recorded_number("E43W")
3.87
>>> recorded_number("K27H")
3.44
>>> recorded_number("E7T")
2.53
